Test Target: UniProt:P14679
Sequence (P14679 whole entry): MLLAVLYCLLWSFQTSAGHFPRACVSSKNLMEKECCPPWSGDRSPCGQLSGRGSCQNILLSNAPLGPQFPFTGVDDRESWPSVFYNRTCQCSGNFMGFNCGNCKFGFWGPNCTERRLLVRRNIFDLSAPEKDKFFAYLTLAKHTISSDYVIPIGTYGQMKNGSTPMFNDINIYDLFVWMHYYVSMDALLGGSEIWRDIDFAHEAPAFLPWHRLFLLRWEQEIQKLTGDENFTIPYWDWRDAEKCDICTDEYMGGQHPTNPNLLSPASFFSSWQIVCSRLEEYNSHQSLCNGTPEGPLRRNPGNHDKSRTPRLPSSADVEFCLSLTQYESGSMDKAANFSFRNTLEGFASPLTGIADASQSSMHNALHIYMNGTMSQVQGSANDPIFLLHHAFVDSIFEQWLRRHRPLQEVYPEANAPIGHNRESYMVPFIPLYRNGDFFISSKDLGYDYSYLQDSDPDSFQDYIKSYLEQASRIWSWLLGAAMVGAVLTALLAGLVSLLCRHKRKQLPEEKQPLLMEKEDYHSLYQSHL
Assay Protocol: Inhibition of tyrosinase (unknown origin) assessed as reduction in diphenolase activity
Recorded IC50 by entry
Use µM as the unit, but write only the number.

CCCCCCn1cc(O)c(=O)cc1COC(=O)[C@@H](N)Cc1ccccc1 ... 42.8
O=C(N[C@@H](Cc1ccccc1)C(=O)OCc1cc(=O)c(O)c[nH]1)OCc1ccccc1 ... 2.79
N[C@@H](Cc1ccccc1)C(=O)N[C@@H](Cc1ccccc1)C(=O)OCc1cc(=O)c(O)c[nH]1 ... 26.2

Please examine the following record next.
Name the reported IC50 value associated with the compound CCCCCCCCn1cc(O)c(=O)cc1COC(=O)[C@@H](N)Cc1ccccc1 12.6

----------
Recorded pIC50 by entry
Test Target: Tyrosinase (Homo sapiens, UniProt P14679)
Sequence (P14679 whole entry): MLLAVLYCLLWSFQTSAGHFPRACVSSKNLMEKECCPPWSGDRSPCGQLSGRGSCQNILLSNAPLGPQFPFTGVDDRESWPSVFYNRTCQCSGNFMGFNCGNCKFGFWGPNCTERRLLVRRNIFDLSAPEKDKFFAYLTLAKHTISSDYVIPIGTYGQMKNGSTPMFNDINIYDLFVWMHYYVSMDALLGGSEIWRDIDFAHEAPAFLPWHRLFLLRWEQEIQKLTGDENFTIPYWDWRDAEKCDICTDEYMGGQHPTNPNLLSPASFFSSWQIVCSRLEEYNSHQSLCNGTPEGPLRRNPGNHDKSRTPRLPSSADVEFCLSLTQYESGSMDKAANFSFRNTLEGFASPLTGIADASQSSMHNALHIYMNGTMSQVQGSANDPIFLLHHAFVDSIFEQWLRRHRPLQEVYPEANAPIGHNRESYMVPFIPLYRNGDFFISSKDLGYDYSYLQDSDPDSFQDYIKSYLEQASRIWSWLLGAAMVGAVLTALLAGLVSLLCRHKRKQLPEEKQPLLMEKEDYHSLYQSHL
Assay Protocol: Inhibition of tyrosinase (unknown origin) assessed as reduction in monophenolase activity
Value format note: pIC50 is -log10 of concentration (mol/L); just state the number.

Completed entries (count: 3):
CCCCCCn1cc(O)c(=O)cc1COC(=O)[C@@H](N)Cc1ccccc1 ... 4.72
CCCCCCCCn1cc(O)c(=O)cc1COC(=O)[C@@H](N)Cc1ccccc1 ... 4.90
O=C(N[C@@H](Cc1ccccc1)C(=O)OCc1cc(=O)c(O)c[nH]1)OCc1ccccc1 ... 5.71

Name the reported pIC50 value associated with the molecule N[C@@H](Cc1ccccc1)C(=O)N[C@@H](Cc1ccccc1)C(=O)OCc1cc(=O)c(O)c[nH]1 5.05
